# testSystem: T1, human BCMA-Fc/His (1-51) (human, UniProt Q02223 1-51)
# T1 construct: also called recombinant human BCMA-Fc/His; recombinant human BCMA-His (Sino Biological Inc.); not shown: Fc region; C-terminal His tag
# T1 sequence: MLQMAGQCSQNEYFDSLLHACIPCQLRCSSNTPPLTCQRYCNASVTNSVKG
# testProtocol: BLI (Octet), antigen on Ni-NTA biosensor, IgG in solution
measuredAttribute: koff (s⁻¹)
// units = s⁻¹; emit number, no label

anti-BCMA IgG antibody 5C3 (antibody, V domains shown) VH: EVQLLESGGGLVQPGGSLRLSCAASGFTFSDYYIHWVRQAPGKGLEWVSAISGSGGSTYYADSVKGRFTISRDNSKNTLYLQMNSLRAEDTAVYYCASDLGDTTFDSWGQGTLVTVSS VL: EIVLTQSPGTLSLSPGERATLSCQASDDISNYLNWYQQKPGQAPRLLIYGVSNRASGIPDRFSGSGSGTDFTLTISRLEPEDFAVYYCQQSYSTPPITFGQGTKLEIKR
0.00966
anti-BCMA IgG antibody 2C6 (antibody, V domains shown) VH: EVQLLESGGGLVQPGGSLRLSCAASGFTFSNYGMSWVRQAPGKGLEWVSSIDYNGSTYYNPSLKSRFTISRDNSKNTLYLQMNSLRAEDTAVYYCAKEHGLFDSWGQGTLVTVSS VL: EIVLTQSPGTLSLSPGERATLSCRVSQSISSYLNWYQQKPGQAPRLLIYDASTRAIGIPDRFSGSGSGTDFTLTISRLEPEDFAVYYCQQVNSYPITFGQGTKVEIKR
0.000403

Task: Given the binder anti-BCMA IgG antibody 5B5 (antibody, V domains shown, also called 5B5 antibody) VH: EVQLLESGGGLVQPGGSLRLSCAASGFTFSGHYWSWVRQAPGKGLEWVSTVSGSGGDTFYADSVKGRFTISRDNSKNTLYLQMNSLRAEDTAVYYCARGHSVMDVWGQGTLVTVSS VL: EIVLTQSPGTLSLSPGERATLSCRASQGIDSYVAWYQQKPGQAPRLLIYDASLRATGIPDRFSGSGSGTDFTLTISRLEPEDFAVYYCQQYNSWPITFGQGTKLEIKR , what is its reported koff?
Result: 0.00025
